# protocolDescription: refractive index (Na D-line) (dimensionless)
# assaySetup: 298.15 K; 101.33 kPa; Liquid; Standard Abbe refractometry
Reported refractive index is given for each of the following compounds.

# compound, refractive index
rows = [
    ("CCCC(C)C [2-methylpentane]", 1.3685),
    ("Cc1ccsc1 [3-methylthiophene]", 1.5172),
    ("Cc1ccccc1C [1,2-dimethylbenzene]", 1.5028),
    ("CCCCCC [hexane]", 1.3724),
    ("CC1CCCC1 [methylcyclopentane]", 1.4067),
]

These entries and their values trace back to the NIST ThermoML archive (doi:10.1016/j.fluid.2009.11.004).
